# EXPERIMENTAL_DETAILS: growth inhibitors of H69AR lung tumor, primary screen, human, duplicate replicates (AID 580);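 also: 100% = mean luminescence of untreated wells and 0% = no signal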
# APPLIED_CONDITIONS: H69AR lung tumor cells viability, ATP luminescence, 72 h; at 10 µM
Calls of active or inactive are those of the source.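 The calls were made as follows: active = viability at or under a set limit in both replicates, limit being median viability minus 3 SD (cut at about 48% in these data, passing the limit was not always enough); inconclusive = at or under the limit in just one replicate; inactive = at or above the limit in both replicates.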
Tick one outcome: 1 (active), 0 (inactive)

Example cases with answers are listed next.
(Q) Called result for CCOc1ccc(-c2cc(C(=O)N3CCN(c4ccccn4)CC3)c3ccccc3n2)cc1
(A) 1

(Q) Fill in: this test's call for Nc1ncnc2nc(Sc3ccc(Cl)cc3)[nH]c12 is ___
(A) 0

(Q) Hello, I am checking results. What call was entered for CC(C)CC(c1nnnn1C(C)(C)C)N1CCN(C2CCCC2)CC1 (stereo not drawn) ?
(A) 0

(Q) // return assay outcome for Cc1ccc2c(CC(=O)OCc3csc(C)n3)coc2c1
(A) 0

(Q) Please indicate how the test categorized c1ccc(OCc2nc3ccccc3[nH]2)cc1 .
(A) 0

Others:
(Q) Test call for this molecule, please: Cc1c(N=C2SCC(=O)N2c2c(C)n(C)n(-c3ccccc3)c2=O)c(=O)n(-c2ccccc2)n1C
(A) 0

(Q) What call does the record list for O=C(O)c1cccc(COCC(F)(F)C(F)F)c1 ?
(A) 0

(Q) Hi, do you know how CCOC(=O)c1sc(NC(=O)CSc2nnc(-c3ccc(OC)cc3)n2CCOC)nc1C came out in this test?
(A) 0

(Q) Returns: the outcome recorded for CCOC(=O)/C=C(\C)Sc1cc(=O)oc2ccccc12 in this assay.
(A) 1

Entry source: PubChem BioAssay
